target-desc: T1, human GIP receptor (human, UniProt P48546 22-466)
T1 sequence (looked up): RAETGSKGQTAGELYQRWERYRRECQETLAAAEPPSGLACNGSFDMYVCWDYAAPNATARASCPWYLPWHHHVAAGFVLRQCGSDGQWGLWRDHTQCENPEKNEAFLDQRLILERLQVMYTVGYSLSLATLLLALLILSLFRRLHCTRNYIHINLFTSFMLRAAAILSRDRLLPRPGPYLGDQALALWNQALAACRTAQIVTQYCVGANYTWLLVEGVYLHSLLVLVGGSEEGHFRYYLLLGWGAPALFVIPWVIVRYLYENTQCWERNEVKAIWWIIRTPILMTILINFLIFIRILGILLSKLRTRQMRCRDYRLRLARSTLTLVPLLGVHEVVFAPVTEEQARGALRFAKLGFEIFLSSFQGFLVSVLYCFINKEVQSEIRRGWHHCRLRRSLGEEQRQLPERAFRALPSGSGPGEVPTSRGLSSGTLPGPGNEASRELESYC
procedure-details: cell-based or functional assay
Bridges are numbered along the chain shown (N, C = ends). Where no end group is shown, it is not given here. [ ]: non-standard residue; d: D form. Aib = CC(C)(N)C(=O)O
in vitro Activity Compared to Native Peptide (%), vs GIP reference
endpoint-label: in vitro Activity Compared to Native Peptide (%), vs GIP

INSERT INTO results (binder, value_units, result_number) VALUES
  ('H[Aib]EGTFTSDYSIAMDEIHQKDFVNWLLAQC (bridge 16-20; not fully specified (C-terminus)) [triple agonist of SEQ ID NO: 53]', '%', 1.3),
  ('H[Aib]QGTFTSDYSKYLDEKRQKEFVQWLLNTKC (bridge 16-20; not fully specified (C-terminus)) [triple agonist of SEQ ID NO: 58]', '%', 0.2),
  ('Y[Aib]QGTFTSDYSKYLDECAAKDFVQWLLDHHPSSGQPPPS (bridge 16-20; not fully specified (C-terminus)) [triple agonist of SEQ ID NO: 67]', '%', 39.8);
